System: vaccinia-specific CD8 CTL clones
Type: cell-based, human
stated-conditions: read-out: EC50 in CTL assays
readout-type: EC50

Request: So what's the measured EC50 for this one? EEQELLLLY [F3 41-49]
Response: ~10 nM

Sourced from patent US20090269365A1
